Test system: Ba/F3 cells KRAS G12D
TEST_DETAILS: Ba/F3 proliferation assay (KRAS G12D)
Type: cell-based
CONDITIONS: Mus musculus, BaF3, 72 h, AlamarBlue viability
The threshold is 100 nM. Values of IC50 beneath it are tagged Criterion met; values meeting or exceeding it are tagged Criterion not met.

Some entries whose results are on file:
CCn1c(=O)n([C@@H]2CCCOC2)c2nc(-c3onc4c3CCC[C@@]43CCCc4sc(N)c(C#N)c43)nc(OC[C@@]34CCCN3C[C@H](F)C4)c21 [I-33]	Criterion not met
C[C@@H]1COC[C@H](n2c(=O)n(C)c3c(O[C@@H](C)[C@@H]4CC[C@H](C)N4C)nc(-c4onc5c4CCC[C@@]54CCCc5sc(N)c(C#N)c54)nc32)C1 [I-53]	Criterion met
CO[C@@H]1C[C@@H]([C@H](C)Oc2nc(-c3onc4c3CCC[C@@]43CCCc4sc(N)c(C#N)c43)nc3c2n(C)c(=O)n3[C@@]23COC[C@@H]2C3)N(C)C1 [I-46]	Criterion met
CCn1c(=O)n([C@@H]2CCCOC2)c2nc(-c3onc4c3CCC[C@@]43CCCc4sc(N)c(C#N)c43)nc(O[C@@H](C)[C@@H]3CCCN3C)c21 [I-30]	Criterion met
C[C@H](Oc1nc(-c2onc3c2CCC[C@@]32CCCc3sc(N)c(C#N)c32)nc2c1n(C)c(=O)n2[C@@H]1CCOC1)[C@@H]1C[C@H](F)CN1C [I-27]	Criterion met
C[C@H](Oc1nc(-c2noc3c2CCC[C@@]32CCCc3sc(N)c(C#N)c32)nc2c1CNC[C@]21CCOC1)[C@@H]1CCCN1C [II-15]	Criterion met
C[C@H](Oc1nc(-c2onc3c2CCC[C@@]32CCCc3sc(N)c(C#N)c32)nc2c1n(C)c(=O)n2[C@@H]1CC2CCC1O2)[C@@H]1CCCN1C (stereo partly drawn) [I-18]	Criterion not met
CO[C@H]1CCN(C)[C@@H]1[C@H](C)Oc1nc(-c2noc3c2CCC[C@@]32CCCc3sc(N)c(C#N)c32)nc2c1n(C)c(=O)n2[C@@H]1CCOC1 [II-1]	Criterion met

Say whether its IC50 is strictly beneath 100 nM. Entry: CCn1c(=O)n([C@@H]2CCCOC2)c2nc(-c3onc4c3CCC[C@@]43CCCc4sc(N)c(C#N)c43)nc(O[C@@H](C)C34CCCN3CCC4)c21 [I-36] Criterion met

Say whether its IC50 is strictly beneath 100 nM. Entry: C[C@H](Oc1nc(-c2onc3c2CCC[C@@]32CCCc3sc(N)c(C#N)c32)nc2c1n(C)c(=O)n2[C@@H]1CCOC1)[C@@H]1CCCN1C [I-20] Criterion met

Say whether its IC50 is strictly beneath 100 nM. Entry: CO[C@@H]1C[C@@H]([C@H](C)Oc2nc(-c3onc4c3CCC[C@@]43CCCc4sc(N)c(C#N)c43)nc3c2n(C)c(=O)n3[C@@H]2CCCOC2)N(C)C1 [I-14] Criterion met

Say whether its IC50 is strictly beneath 100 nM. Entry: C[C@H](Oc1nc(-c2onc3c2CCC[C@@]32CCCc3sc(N)c(C#N)c32)nc2c1[nH]c(=O)n2[C@@H]1CCOC1)[C@@H]1CCCN1C [I-8] Criterion not met
